target: human β3 adrenergic receptor (Homo sapiens); construct: expressed in transfected cells; host or cells: CHO (Chinese hamster ovary) cells, stably transfected; test: Beta-3 agonist in vitro functional assay (cAMP production, LANCE, transfected CHO cells); type: cell-based; conditions: Table 3, CHO cells with cloned β3 receptor, ligands titrated 10^-12 M to 10^-5 M, read-out: Human β3 agonist functional activity
Sequence (P13945 whole entry): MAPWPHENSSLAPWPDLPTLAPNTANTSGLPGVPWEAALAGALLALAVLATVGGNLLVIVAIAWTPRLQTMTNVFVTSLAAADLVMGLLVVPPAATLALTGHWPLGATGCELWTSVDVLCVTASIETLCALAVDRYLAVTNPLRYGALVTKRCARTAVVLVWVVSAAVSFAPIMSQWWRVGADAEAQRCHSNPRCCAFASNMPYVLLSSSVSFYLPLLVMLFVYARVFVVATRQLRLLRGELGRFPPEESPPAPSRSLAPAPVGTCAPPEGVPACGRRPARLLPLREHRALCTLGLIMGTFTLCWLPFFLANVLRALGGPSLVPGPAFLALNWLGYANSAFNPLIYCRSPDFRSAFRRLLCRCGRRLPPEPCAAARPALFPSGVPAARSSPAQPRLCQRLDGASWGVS
Assignment: determine reported EC50 for the given molecules.

Request: Record lookup: for human β3 adrenergic receptor (Homo sapiens), what EC50 belongs to "Cc1cc(CN(C)C(=O)c2ccc(C[C@@H]3CC[C@H]([C@H](O)c4ccccc4)N3)cc2)on1" ?
Result: 10 to 99.9 nM

Request: Enter reported EC50 observed with human β3 adrenergic receptor (Homo sapiens) for "Cc1nc(CN(C)C(=O)c2ccc(C[C@@H]3CC[C@H]([C@H](O)c4ccccc4)N3)cc2)cs1"
Result: 10 to 99.9 nM

Request: Form entry - test system: human β3 adrenergic receptor (Homo sapiens); read-out: EC50; molecule: "O=C(c1ccc(C[C@@H]2CC[C@H]([C@H](O)c3ccccc3)N2)cc1)N(CCO)Cc1ccccc1F"
Result: 1 to 9.9 nM

Request: For the record "COCCCN(Cc1cccnn1)C(=O)c1ccc(C[C@@H]2CC[C@H]([C@H](O)c3ccccc3)N2)cc1" , what value of EC50 is listed for human β3 adrenergic receptor (Homo sapiens)?
Result: 100 to 999 nM

Request: Please state recorded EC50 (tested on human β3 adrenergic receptor (Homo sapiens)) of "CCN(Cc1ccnc(C(C)C)n1)C(=O)c1ccc(C[C@@H]2CC[C@H]([C@H](O)c3ccccc3)N2)cc1"
Result: 10 to 99.9 nM

Request: Give EC50 (human β3 adrenergic receptor (Homo sapiens)) of the following molecule: CC(C1COc2ccccc2O1)N(C)C(=O)c1ccc(C[C@@H]2CC[C@H]([C@H](O)c3ccccc3)N2)cc1 (single isomer, unassigned) [Example 95]
Result: 100 to 999 nM

Request: API: value(readout= EC50, system= human β3 adrenergic receptor (Homo sapiens), query= "CN(Cc1cnccn1)C(=O)c1ccc(C[C@@H]2CC[C@H]([C@H](O)c3ccccc3)N2)cc1" )
Result: 10 to 99.9 nM

Request: human β3 adrenergic receptor (Homo sapiens) / EC50 / "CN(Cc1n[nH]c2c1CCCC2)C(=O)c1ccc(C[C@@H]2CC[C@H]([C@H](O)c3ccccc3)N2)cc1" : value?
Result: < 1 nM

Request: Give the reported EC50 for "CN(Cc1ccon1)C(=O)c1ccc(C[C@@H]2CC[C@H]([C@H](O)c3ccccc3)N2)cc1" (system: human β3 adrenergic receptor (Homo sapiens)).
Result: 10 to 99.9 nM

Request: Lab request: please report EC50 under test system human β3 adrenergic receptor (Homo sapiens) for "Cc1cnc(CN(CC(C)C)C(=O)c2ccc(C[C@@H]3CC[C@H]([C@H](O)c4ccccc4)N3)cc2)s1"
Result: 10 to 99.9 nM

Request: What EC50 appears in the records for this molecule with human β3 adrenergic receptor (Homo sapiens)? "CN(Cc1ccccn1)C(=O)c1ccc(C[C@@H]2CC[C@H]([C@H](O)c3ccccc3)N2)cc1"
Result: 100 to 999 nM

Request: API: value(readout= EC50, system= human β3 adrenergic receptor (Homo sapiens), query= "CN(Cc1nn(C)c(Cl)c1Cl)C(=O)c1ccc(C[C@@H]2CC[C@H]([C@H](O)c3ccccc3)N2)cc1" )
Result: 1 to 9.9 nM

Request: Recall the recorded EC50 for "CN(Cc1cscn1)C(=O)c1ccc(C[C@@H]2CC[C@H]([C@H](O)c3ccccc3)N2)cc1" with human β3 adrenergic receptor (Homo sapiens) and state it.
Result: 100 to 999 nM

Request: Lab note: need EC50 for "CN(Cc1cnn(-c2ccccc2)c1)C(=O)c1ccc(C[C@@H]2CC[C@H]([C@H](O)c3ccccc3)N2)cc1" on human β3 adrenergic receptor (Homo sapiens), anyone have it?
Result: 10 to 99.9 nM
